molecular target: furin, P09958; assay: furin cleavage Z-score vs untreated control; higher = more cleavage, active = 3.5 or more, inactive = 1 or less, 8 variable residues between constant flanks; conditions: 15 min;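 further: purified furin at 1:10 enzyme:substrate in 50 mM HEPES pH 7.5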
Sequence (P09958 whole entry): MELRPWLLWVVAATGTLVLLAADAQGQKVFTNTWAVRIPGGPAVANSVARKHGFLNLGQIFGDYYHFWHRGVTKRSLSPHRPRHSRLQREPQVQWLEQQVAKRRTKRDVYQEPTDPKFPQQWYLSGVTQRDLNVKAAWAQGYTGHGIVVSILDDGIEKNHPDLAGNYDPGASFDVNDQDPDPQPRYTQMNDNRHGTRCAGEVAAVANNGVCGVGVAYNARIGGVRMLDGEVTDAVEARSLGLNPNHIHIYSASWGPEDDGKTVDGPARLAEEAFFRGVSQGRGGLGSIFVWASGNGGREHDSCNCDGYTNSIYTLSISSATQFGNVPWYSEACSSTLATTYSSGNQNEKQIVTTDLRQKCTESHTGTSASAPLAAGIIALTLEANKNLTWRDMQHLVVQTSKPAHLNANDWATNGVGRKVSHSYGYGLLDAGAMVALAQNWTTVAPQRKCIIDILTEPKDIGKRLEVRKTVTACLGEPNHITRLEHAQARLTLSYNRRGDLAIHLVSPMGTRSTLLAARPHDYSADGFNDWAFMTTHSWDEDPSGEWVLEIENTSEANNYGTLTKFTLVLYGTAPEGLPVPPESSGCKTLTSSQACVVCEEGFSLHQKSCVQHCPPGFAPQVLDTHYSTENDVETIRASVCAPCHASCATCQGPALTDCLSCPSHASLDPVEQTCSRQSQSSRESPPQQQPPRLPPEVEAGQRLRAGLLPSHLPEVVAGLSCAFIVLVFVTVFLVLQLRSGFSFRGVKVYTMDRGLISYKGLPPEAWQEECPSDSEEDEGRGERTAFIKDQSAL
Some of the results follow. The true hit rate is not given.
Tick fulfilled if furin cleavage Z-score is 2 or greater. Tick not fulfilled if furin cleavage Z-score is less than 2.

Is furin cleavage Z-score for CANDIREKREAGNASASA [FS-179] at or above 2?
fulfilled

Is furin cleavage Z-score for CAVQNEITLTAGNASASA [HC976] at or above 2?
not fulfilled

Is furin cleavage Z-score for CASMPPLEGEAGNASASA [HC1354] at or above 2?
not fulfilled

Is furin cleavage Z-score for CALAGTHGLVAGNASASA [HC540] at or above 2?
not fulfilled

Is furin cleavage Z-score for CAEERREKREAGNASASA [FS-905] at or above 2?
fulfilled

Is furin cleavage Z-score for CAPRARCRRAAGNASASA [FS-138] at or above 2?
fulfilled

Is furin cleavage Z-score for CARRPEGRTWAGNASASA [HC195] at or above 2?
not fulfilled
